Below, each of the molecules is paired with its reported growth value.
- Tested on: HCT-116 colon
- assay_info: NCI-60 one-dose screen, 48 h (100 = growth as untreated, 0 = no growth, -100 = all killed)
- run_conditions: 10 µM unless noted
This is part of a sample that, as a whole, favours compounds with a hit. Of some 83,000 tested, about 20% had one in any assay. Calls of active or inactive are those of the source. Rule for the calls: active = growth percent below 10; inactive = the rest.

[
  {
    "molecule": "Nc1nc(N)c2c(n1)NC(c1ccccc1)C1CCc3ccccc3C1=N2 (stereo not given)",
    "growth": "26.1% (inactive)"
  },
  {
    "molecule": "O=C1N=c2cc3c(cc2=C/C1=C/c1sc(=S)n(CCc2ccc(O)cc2)c1O)OCCO3",
    "growth": "7.52% (active)"
  },
  {
    "molecule": "Oc1c(CN2CCCC2)cc(COCc2ccc(Br)cc2)c2cccnc12",
    "growth": "1.8% (active)"
  },
  {
    "molecule": "O=S(=O)(NCCCNc1cc(-c2c(-c3cccc(O)c3)nc3sccn23)ccn1)c1cccc(Cl)c1",
    "growth": "33.5% (inactive)"
  },
  {
    "molecule": "O=C(Nc1ccccc1)Nc1cccc(Oc2nnc(Cl)c3ccccc23)c1",
    "growth": "10.6% (inactive)"
  },
  {
    "molecule": "Cc1cc[c-]cc1.Fc1c[c-]c(-c2ccccn2)c(F)c1.[Pt+2].c1ccc(P(C[PH+](c2ccccc2)c2ccccc2)c2ccccc2)cc1",
    "growth": "9.8% (active)"
  },
  {
    "molecule": "CC(=O)c1nc(Nc2ccc(C)cc2)sc1C",
    "growth": "90.9% (inactive)"
  },
  {
    "molecule": "O=C(c1ccccc1)N1N=C(c2ccccc2)CC1c1nnc2n(Cc3ccccc3)c(=O)c3c4c(sc3n12)CCCC4 (stereo not given)",
    "growth": "95.1% (inactive)"
  },
  {
    "molecule": "Cc1ccc(/C=C2\\C(=O)N(C)c3ccc(S(=O)(=O)Nc4ccc(C(C)(C)C)cc4)cc32)s1",
    "growth": "37.2% (inactive)"
  },
  {
    "molecule": "N=c1sc(Cc2ccc(Cl)cc2)cn1CC(=O)c1ccc(F)cc1",
    "growth": "63.7% (inactive)"
  }
]
